Test: Formation Constant (Log KML) of metal chelant complex with copper
Type: physicochemical
Conditions: formation constant for copper, concentrations in mol/dm^3, logarithm
Short version: Log KML Cu at least 9 is 1 (yes), less is 0 (no).

Use these answered entries as a reference point.
- O=C(O)CC(NCCNC(CC(=O)O)C(=O)O)C(=O)O (stereo not drawn) [EDDS, ethylenediamine-N,N′-disuccinic acid]: 1 (yes)
- N[C@@H](Cc1c[nH]c2ccccc12)C(=O)O [Tryptophan]: 0 (no)
- NC(=O)CC[C@H](N)C(=O)O [Glutamine]: 0 (no)
- NC(=O)C[C@H](N)C(=O)O [Asparagine]: 0 (no)
- N[C@@H](CO)C(=O)O [Serine]: 0 (no)

INPUT: Quick check, Log KML Cu >= 9? C[C@H](N)C(=O)O [Alanine]
OUTPUT: 0 (no)

INPUT: Quick check, Log KML Cu >= 9? N[C@@H](Cc1c[nH]cn1)C(=O)O [Histidine]
OUTPUT: 1 (yes)

INPUT: Quick check, Log KML Cu >= 9? NCC(=O)O [Glycine]
OUTPUT: 0 (no)
